The reported numbers originate from PubChem BioAssay (NCATS).

# System: CP329
# experimentNotes: qHTS profiling for inhibitors of Plasmodium falciparum proliferation (AID 504749);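 note: 0% = DMSO vehicle and full inhibition = artemisinin control; nearly all actives have a fitted effect of over 60% in size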
# studyConditions: P. falciparum in erythrocytes, SYBR Green DNA, 72 h; series mostly up to 28.7 µM
Inconclusive results are not listed. Activity calls are given as the source filed them. Calls come from the whole dose curve; as a rule, active = well fitted inhibition curve with a large enough effect; inconclusive = small, poorly fitted or top-dose-only effect; inactive = flat fitted curve, though single readings scatter.
valueType: outcome

1. C[C@]12CC[C@H]3[C@@H](CCC4=CC(=O)CC[C@@]43C)[C@@H]1CC[C@@H]2O : inactive
2. CC(=O)O[C@H]1CC[C@@]2(C)C(=CC[C@@H]3[C@H]2CC[C@]2(C)C(=O)CC[C@H]32)C1 : inactive
3. C[N+]1([O-])[C@@H]2CC(OC(=O)[C@@H](CO)c3ccccc3)C[C@@H]1[C@H]1O[C@H]12 (stereo partly drawn) : inactive

* * *

# experimentNotes: qHTS for differential inhibitors of proliferation of Plasmodium falciparum line 3D7 (AID 1876)
# studyConditions: P. falciparum 3D7 proliferation inhibition; series mostly up to 28.7 µM
Inconclusive results are not listed. Active and inactive are the calls of the source. Calls come from the whole dose curve; as a rule, active = well fitted curve in the direction sought with a large enough effect; inconclusive = small, poorly fitted or top-dose-only effect, or another doubt; inactive = no such curve, though single readings can be large or run the other way.
Log the outcome using a class from active, inactive

Reference set, count: 2
1) O=C(O)C1C2CCC(O2)C1C(=O)O (stereo not drawn) : inactive
2) CCCN1CCC[C@@H](c2cccc(C#N)c2)C1 : inactive

Enquiry: // return assay outcome for CC(=O)O[C@H]1C[C@@H]2CCC3C(CC[C@@]4(C)[C@H]3C[C@H]([N+]3(C)CCCCC3)[C@@H]4OC(C)=O)[C@@]2(C)C[C@@H]1[N+]1(C)CCCCC1 (stereo partly drawn)
Return: active

* * *

# tgt: Nuclear receptor subfamily 1 group I member 2 (Rattus norvegicus) (UniProt Q9R1A7)
# Sequence (Q9R1A7 whole entry, looked up): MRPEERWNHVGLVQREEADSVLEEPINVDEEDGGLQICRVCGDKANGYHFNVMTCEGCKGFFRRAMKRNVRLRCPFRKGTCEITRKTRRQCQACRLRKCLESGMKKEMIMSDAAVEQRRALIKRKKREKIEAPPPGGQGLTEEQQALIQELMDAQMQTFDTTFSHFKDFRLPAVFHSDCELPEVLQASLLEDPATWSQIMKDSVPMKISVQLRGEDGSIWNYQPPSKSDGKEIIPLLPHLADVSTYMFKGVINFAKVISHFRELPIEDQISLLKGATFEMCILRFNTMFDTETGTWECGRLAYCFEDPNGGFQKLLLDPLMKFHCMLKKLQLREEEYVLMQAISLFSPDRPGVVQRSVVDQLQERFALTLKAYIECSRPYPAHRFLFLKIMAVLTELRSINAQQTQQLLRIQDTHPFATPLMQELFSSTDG
# experimentNotes: qHTS assay for small molecule activators of the rat pregnane X receptor (rPXR) signaling pathway (AID 651751); note: 0% is about no effect
# studyConditions: rPXR reporter cells, luciferase (One-Glo), 24 h
Listed next: entries and their corresponding max response.
Enter your answer as a number in %; do not include the unit.

Use the examples below as a reference point.
1) CCCSC(=O)Cl : -3.99
2) c1ccc2c(c1)CCCC2 : -0.477

Read the next record carefully.
Enquiry: Enter reported max response observed with Nuclear receptor subfamily 1 group I member 2 (Rattus norvegicus) (UniProt Q9R1A7) for S=C=Nc1cccc2ccccc12
Return: 5.78

* * *

# experimentNotes: Cell Viability - N2a (AID 540);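 note: cells exposed to compound for 40 h at 37 °C; plate controls were DMSO alone for no effect and tamoxifen control for full effect; nearly all actives have a fitted effect of over 45% in size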
# studyConditions: N2a mouse neuroblastoma cell viability; at 92.2 µM (top of the series)
Inconclusive results are not listed.
Listed next: entries and their corresponding activity change, negative = cytotoxicity.
Enter your answer as a number in %; do not include the unit.

1. CCSC(=O)Cl : 2.21

Enquiry: // query activity change, negative = cytotoxicity value for entry c1ccc2c(c1)CCCC2
Return: 9.97

Enquiry: // query activity change, negative = cytotoxicity value for entry Cc1ccc2ccccc2c1
Return: -3.22

Enquiry: // query activity change, negative = cytotoxicity value for entry C=CC1CC=CCC1 (stereo not given)
Return: 0.971

Enquiry: // query activity change, negative = cytotoxicity value for entry C=CCOC(C)=O
Return: -14.3

* * *

Listed next: entries and their corresponding Potency.
# tgt: Glucocorticoid receptor (Homo sapiens) (UniProt P04150)
# Sequence (P04150 whole entry, looked up): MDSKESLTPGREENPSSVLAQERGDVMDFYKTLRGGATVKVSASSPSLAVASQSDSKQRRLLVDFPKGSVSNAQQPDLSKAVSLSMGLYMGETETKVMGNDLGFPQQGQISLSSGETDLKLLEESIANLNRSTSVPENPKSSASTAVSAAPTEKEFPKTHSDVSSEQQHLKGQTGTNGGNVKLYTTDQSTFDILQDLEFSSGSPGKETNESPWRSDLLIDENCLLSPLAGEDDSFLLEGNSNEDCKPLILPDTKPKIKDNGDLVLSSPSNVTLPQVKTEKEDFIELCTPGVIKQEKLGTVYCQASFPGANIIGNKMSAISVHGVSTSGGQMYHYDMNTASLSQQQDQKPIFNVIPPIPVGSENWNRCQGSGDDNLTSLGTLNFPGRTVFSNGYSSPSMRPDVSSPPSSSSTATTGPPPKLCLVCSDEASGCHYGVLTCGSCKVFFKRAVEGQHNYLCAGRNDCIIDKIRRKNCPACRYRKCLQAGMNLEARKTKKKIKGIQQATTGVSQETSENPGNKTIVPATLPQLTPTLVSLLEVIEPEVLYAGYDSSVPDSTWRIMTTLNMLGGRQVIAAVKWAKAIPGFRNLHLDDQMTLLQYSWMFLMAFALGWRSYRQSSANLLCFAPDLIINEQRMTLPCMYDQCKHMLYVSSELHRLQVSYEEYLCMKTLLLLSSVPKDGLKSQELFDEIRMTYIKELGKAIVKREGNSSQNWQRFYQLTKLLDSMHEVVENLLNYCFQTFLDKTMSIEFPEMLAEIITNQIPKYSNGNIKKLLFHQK
# experimentNotes: GR-EFC Redistribution (AID 451); note: potency is the fitted concentration of half-maximal effect
# studyConditions: CHO-K1 GR-EFC translocation, beta-gal luminescence, 2 h
The source made the active and inactive calls. Calls follow the shape of the full dose curve.

1) CN1CC[C@@]2(CCCN(C(=O)c3ccncc3)C2)C1 : > 46 µM (inactive)
2) C=C1[C@@H]2CC[C@H]3[C@@]4(C)C[C@@H](O[C@@H]5O[C@H](CO)[C@H](OS(=O)(=O)O)[C@@H](OS(=O)(=O)O)[C@@H]5OC(=O)CC(C)C)C[C@@H](C(=O)O)[C@H]4CC[C@@]3(C2)[C@H]1O : > 20.6 µM (inactive)

Read the next record carefully.
Enquiry: // query Potency value for entry COC1=CC(=O)O[C@@H](/C=C\c2ccccc2)C1
Return: > 20.6 µM (inactive)
